The values you see were collected from patent US20210032351A1.

Target: T1, human EGFRvIII-hFc protein (human, UniProt P00533 25-645)
T1 construct: extracellular domain; made in HEK293 cells, purified on protein A; also called immunogen A; hFc-tagged EGFRvIII protein; not shown: human IgG Fc fragment (hFc) of the pCpC vector
Test: ELISA, coated EGFRvIII-hFc, antibody 100 nM
quantityName: OD450 nm
# respond with the number and nothing more

{"binder": "Murine anti-7E5 (antibody, V domains shown, murine hybridoma antibody; also called 7E5-2A9; murine anti-7E5-2) VH: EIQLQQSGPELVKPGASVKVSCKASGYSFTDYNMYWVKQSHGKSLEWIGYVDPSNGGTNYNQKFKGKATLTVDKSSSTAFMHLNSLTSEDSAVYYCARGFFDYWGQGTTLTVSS VL: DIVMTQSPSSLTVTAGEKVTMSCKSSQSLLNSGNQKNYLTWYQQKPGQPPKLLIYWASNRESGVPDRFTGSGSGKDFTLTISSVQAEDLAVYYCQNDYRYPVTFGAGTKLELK", "quantityName": "OD450 nm", "result": 3.36}

Which value of OD450 nm has been reported for Murine anti-53D8 (antibody, V domains shown, murine hybridoma antibody; also called 53D8H4) VH: QVQLQQSGAELARPGASVKMSCKASGYTFTSYTMHWVKQRPGQGLEWIGYINPSSGYTKYNQIFKDKATLTADKSSSTAYMQLSSLTSEDSAVYYCTRGGGRGFAYWGQGTLVTVSA VL: DILMTQSPSSMSVSLGDTVSITCHASQDINSNIGWLQQKPGKSFKGLIYHGTNLEDGVPSRFSGSGSGADYSLTISSLESEDFADYYCVQYAQFPFTFGSGTKLEIK in the records?
3.72
